- Test system: SF-295
- procedure summary: NCI-60 anticancer screen (SRB; single dose and five doses)
- assay setup: Homo sapiens, SF-295
Catalogue of IC50 values
// return numeric value only (unit: µM, not printed)

[ask] Item under review: Cc1[nH]c(=S)sc1C(=O)/C=C/c1cccc(Cl)c1 [2e] . Reported IC50?
[reply] 11.5

[ask] What about Cc1[nH]c(=S)sc1C(=O)/C=C/c1cccc([N+](=O)[O-])c1 [2h] ?
[reply] 8.71

[ask] What do you have for COc1cc(/C=C/C(=O)c2sc(=S)[nH]c2C)cc(OC)c1OC [2p] ?
[reply] 14.5

[ask] Another compound to check: Cc1[nH]c(=S)sc1C(=O)/C=C/c1ccc(Cl)cc1 [2f]
[reply] 28.8

* * *

- Tested on: 60 human tumor cell lines panel
- procedure summary: NCI-60 anticancer screen, whole panel (means and ranges over the cell lines)
- Format: cell-based
- assay setup: Homo sapiens, 48 h; range over the cell lines; dose of 10 μM; read-out: growth percentages against most of the tested cells (lowest to highest)
# activity at 10 µM listing for each entry below

Example entries begin here.
Cc1[nH]c(=S)sc1C(=O)/C=C/c1ccccc1Cl ... 14.1 to 116%
COc1cccc(/C=C/C(=O)c2sc(=S)[nH]c2C)c1OC ... 5.15 to 109%
Cc1[nH]c(=S)sc1C(=O)/C=C/c1ccc([N+](=O)[O-])cc1 ... -86.2 to 108%
Cc1[nH]c(=S)sc1C(=O)/C=C/c1ccc(Br)cc1 ... -34.1 to 109%
Cc1[nH]c(=S)sc1C(=O)/C=C/c1ccc(F)cc1 ... -13.6 to 119%
COc1ccc(/C=C/C(=O)c2sc(=S)[nH]c2C)cc1OC ... -0.42 to 126%

[ask] Missing value: activity at 10 µM, 60 human tumor cell lines panel, entry `Cc1[nH]c(=S)sc1C(=O)/C=C/c1ccccc1` . Fill in?
[reply] 14.1 to 129%

[ask] Next compound: `Cc1[nH]c(=S)sc1C(=O)/C=C/c1cccc(Cl)c1`
[reply] -26.1 to 98%

[ask] Another: `Cc1[nH]c(=S)sc1C(=O)/C=C/c1ccc(Cl)cc1`
[reply] -48.1 to 106%

[ask] Queued: `COc1cc(/C=C/C(=O)c2sc(=S)[nH]c2C)cc(OC)c1OC`
[reply] -64.6 to 96.5%

* * *

- System: RXF 393
- procedure summary: NCI-60 anticancer screen (SRB; single dose and five doses)
- assay setup: Homo sapiens, RXF 393, 48 h, read-out: Growth Percentage
result type: activity at 10 µM (%)
Supply the numeric figure in %, leaving out any unit text.

Cc1[nH]c(=S)sc1C(=O)/C=C/c1cccc([N+](=O)[O-])c1 ... -91.9
Cc1[nH]c(=S)sc1C(=O)/C=C/c1cccc(F)c1 ... 23.2
Cc1[nH]c(=S)sc1C(=O)/C=C/c1ccc(F)cc1 ... 23.2
COc1ccc(/C=C/C(=O)c2sc(=S)[nH]c2C)c(OC)c1 ... 68.9
COc1ccc(/C=C/C(=O)c2sc(=S)[nH]c2C)cc1 ... 77.5

Kindly consider the entry below.
[ask] Look up activity at 10 µM: `Cc1[nH]c(=S)sc1C(=O)/C=C/c1ccc(Cl)cc1`
[reply] 9.78

* * *

- System: IGROV1
- procedure summary: NCI-60 anticancer screen (SRB; single dose and five doses)
- assay setup: Homo sapiens, IGROV-1, 48 h, read-out: Growth Percentage
Listed compounds paired with reported activity at 10 µM
// return numeric value only (unit: %, not printed)

[ask] Query: activity at 10 µM; subject: COc1ccc(/C=C/C(=O)c2sc(=S)[nH]c2C)cc1 [2l]
[reply] 89.1

[ask] Entry Cc1ccc(/C=C/C(=O)c2sc(=S)[nH]c2C)cc1 [2j] please
[reply] 83.4

[ask] What do we get for Cc1[nH]c(=S)sc1C(=O)/C=C/c1ccc([N+](=O)[O-])cc1 [2i] ?
[reply] 16.1

[ask] Entry Cc1[nH]c(=S)sc1C(=O)/C=C/c1ccccc1 [2a] please
[reply] 81.8

[ask] Query Cc1[nH]c(=S)sc1C(=O)/C=C/c1ccccc1Cl [2d] next
[reply] 91.9

[ask] Continue with COc1ccc(/C=C/C(=O)c2sc(=S)[nH]c2C)cc1OC [2o]
[reply] 69.5

[ask] Next entry: Cc1[nH]c(=S)sc1C(=O)/C=C/c1ccc(N(C)C)cc1 [2k]
[reply] 82.3

* * *

- Tested on: DU-145
- procedure summary: NCI-60 anticancer screen (SRB; single dose and five doses)
- assay setup: Homo sapiens, DU-145, 48 h, read-out: Growth Percentage
Response field label takes Fulfilled when activity at 10 µM is strictly below 60% and Not fulfilled in all other cases.

[ask] Is activity at 10 µM strictly under 60% for the entry `Cc1[nH]c(=S)sc1C(=O)/C=C/c1ccc(Br)cc1` ?
[reply] Fulfilled

[ask] Same thing, different molecule: `COc1cc(/C=C/C(=O)c2sc(=S)[nH]c2C)cc(OC)c1OC`
[reply] Fulfilled

[ask] Then `Cc1[nH]c(=S)sc1C(=O)/C=C/c1cccc(Cl)c1` ?
[reply] Fulfilled

[ask] Input `Cc1[nH]c(=S)sc1C(=O)/C=C/c1ccccc1Cl`
[reply] Not fulfilled

* * *

- Tested on: IGROV1
- procedure summary: NCI-60 anticancer screen (SRB; single dose and five doses)
- assay setup: Homo sapiens, IGROV-1
Each entry below carries its reported IC50.
Use µM as the unit, but write only the number.

Completed entries (count: 2):
Cc1[nH]c(=S)sc1C(=O)/C=C/c1cccc([N+](=O)[O-])c1 ... 4.9
COc1cc(/C=C/C(=O)c2sc(=S)[nH]c2C)cc(OC)c1OC ... 5.75

[ask] Recorded IC50 of `Cc1[nH]c(=S)sc1C(=O)/C=C/c1ccc(Cl)cc1` , please.
[reply] 25.7

* * *

- System: ACHN
- procedure summary: NCI-60 anticancer screen (SRB; single dose and five doses)
- assay setup: Homo sapiens, read-out: LC50
# CC50 annotations
Please respond with the number in µM and leave the unit unwritten.

[ask] Look at this molecule and give its reported CC50. Cc1[nH]c(=S)sc1C(=O)/C=C/c1ccc([N+](=O)[O-])cc1 [2i]
[reply] 48.4

[ask] What about this molecule? COc1cc(/C=C/C(=O)c2sc(=S)[nH]c2C)cc(OC)c1OC [2p]
[reply] 55

[ask] Record: Cc1[nH]c(=S)sc1C(=O)/C=C/c1ccc(F)cc1 [2c]
[reply] 44.3

[ask] What do you have for Cc1[nH]c(=S)sc1C(=O)/C=C/c1ccc(Br)cc1 [2g] ?
[reply] 45.4

* * *

- Test system: U251
- procedure summary: NCI-60 anticancer screen (SRB; single dose and five doses)
- assay setup: Homo sapiens, U-251, read-out: TGI
result type: IC (TGI) (µM)
# output: bare number, implied unit µM

Cc1[nH]c(=S)sc1C(=O)/C=C/c1ccc([N+](=O)[O-])cc1 ... 17
COc1cc(/C=C/C(=O)c2sc(=S)[nH]c2C)cc(OC)c1OC ... 12

[ask] What does the record list as IC (TGI) for `Cc1[nH]c(=S)sc1C(=O)/C=C/c1ccc(Cl)cc1` ?
[reply] 13.2

* * *

- Tested on: NCI-H522
- procedure summary: NCI-60 anticancer screen (SRB; single dose and five doses)
- assay setup: Homo sapiens, NCI-H522, read-out: TGI
Binarize IC (TGI) at 20 µM; below is true, at or above is false.

Please review the following examples before continuing.
Cc1[nH]c(=S)sc1C(=O)/C=C/c1cccc(Cl)c1 [2e] ... true
Cc1[nH]c(=S)sc1C(=O)/C=C/c1ccc([N+](=O)[O-])cc1 [2i] ... false
Cc1[nH]c(=S)sc1C(=O)/C=C/c1ccc(Br)cc1 [2g] ... true

[ask] Criterion: IC (TGI) strictly below 20 µM. Is it met by Cc1[nH]c(=S)sc1C(=O)/C=C/c1ccc(Cl)cc1 [2f] ?
[reply] false

[ask] Same read-out for Cc1[nH]c(=S)sc1C(=O)/C=C/c1cccc([N+](=O)[O-])c1 [2h] ?
[reply] true

* * *

Measured activity at 10 µM of individual entries
- Test system: BT-549
- procedure summary: NCI-60 anticancer screen (SRB; single dose and five doses)
- assay setup: Homo sapiens, BT-549, 48 h, read-out: Growth Percentage
Dear colleague, please send the value followed by its unit.

COc1cc(/C=C/C(=O)c2sc(=S)[nH]c2C)cc(OC)c1OC ... -11.8%
Cc1[nH]c(=S)sc1C(=O)/C=C/c1cccc(F)c1 ... 65.7%
Cc1[nH]c(=S)sc1C(=O)/C=C/c1ccc(Br)cc1 ... 19.5%
COc1ccc(/C=C/C(=O)c2sc(=S)[nH]c2C)c(OC)c1 ... 59.8%
COc1ccc(/C=C/C(=O)c2sc(=S)[nH]c2C)cc1OC ... 18.9%

// switching to the query molecule
[ask] Look at this molecule and give its reported activity at 10 µM. `Cc1[nH]c(=S)sc1C(=O)/C=C/c1ccc(N(C)C)cc1`
[reply] 82.2%

Data provenance is paper PMC11435058.
